Test system: HSV-1 (E-377)
Test: cytopathogenic effects (CPE)-inhibition procedure, HSV-1, Vero cells
Settings: HSV-1 strain E-377; Vero cell monolayers; VR ≥ 1.0 = definite activity, 0.5-0.9 marginal to moderate, < 0.5 usually no significant activity
Think of 3 as a floor: if VR (virus rating), HSV-1 (E-377) stands on it or above, it is met; beneath it, not met.

- Compound: "Nc1ncnc2c1ncn2[C@@H]1O[C@H](CO)[C@@H](O)[C@@H]1O.O [Ara-A, reference compound]"
  Target or test system: "HSV-1 (E-377)"
  Discrete label: "not met"
- Compound: "Nc1nc2c(ncn2[C@@H]2C[C@H](CO)[C@H](O)[C@H]2O)c(=O)[nH]1 (relative stereo)"
  Target or test system: "HSV-1 (E-377)"
  Discrete label: "met"
- Compound: "Nc1nc(N)c2ncn([C@@H]3C[C@H](CO)[C@H](O)[C@H]3O)c2n1 (relative stereo) [Compound 10a]"
  Target or test system: "HSV-1 (E-377)"
  Discrete label: "not met"
- Compound: "Nc1nc2c(nnn2[C@@H]2C[C@H](CO)[C@H](O)[C@H]2O)c(=O)[nH]1 (relative stereo) [Compound 13a]"
  Target or test system: "HSV-1 (E-377)"
  Discrete label: "not met"
- Compound: "Nc1nc(N)c2nnn([C@@H]3C[C@H](CO)[C@H](O)[C@H]3O)c2n1 (relative stereo) [Compound 14a]"
  Target or test system: "HSV-1 (E-377)"
  Discrete label: "not met"
